- Test system: PPARg DBDmut IVT, anti-PPARg (DBD mutation: PPARg1 K132A/R137A, NR concentration 270 nM)
- Measurement description: PBM binding z-score (relative to random genomic background probes); higher = stronger binding; sequences stand for … in GC…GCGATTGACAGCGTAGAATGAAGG
Tick label 1 if PBM binding z-score is -0.3 or greater. Tick label 0 if PBM binding z-score is less than -0.3.

Biosequence	Group label
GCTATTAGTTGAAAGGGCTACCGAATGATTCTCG	label 1
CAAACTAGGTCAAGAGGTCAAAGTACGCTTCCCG	label 1
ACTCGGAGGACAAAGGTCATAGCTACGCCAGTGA	label 1
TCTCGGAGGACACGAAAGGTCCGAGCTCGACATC	label 0
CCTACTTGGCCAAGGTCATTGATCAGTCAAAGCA	label 1
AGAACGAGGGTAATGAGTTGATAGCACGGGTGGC	label 0
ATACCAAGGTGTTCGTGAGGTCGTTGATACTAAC	label 1
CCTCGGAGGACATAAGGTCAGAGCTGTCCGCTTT	label 0
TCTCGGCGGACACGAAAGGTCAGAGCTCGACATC	label 0
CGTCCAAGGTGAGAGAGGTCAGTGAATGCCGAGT	label 0
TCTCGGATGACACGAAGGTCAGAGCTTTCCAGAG	label 0
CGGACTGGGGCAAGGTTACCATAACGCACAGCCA	label 1
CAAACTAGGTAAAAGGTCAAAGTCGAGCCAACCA	label 1
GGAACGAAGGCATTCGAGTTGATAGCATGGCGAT	label 0
TCTGGTAGATCAAAGGTTAAGAAAGCCGAAGCCT	label 1
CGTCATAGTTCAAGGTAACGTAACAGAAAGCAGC	label 1
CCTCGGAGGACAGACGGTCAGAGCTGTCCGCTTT	label 0
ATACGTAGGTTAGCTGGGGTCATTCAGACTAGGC	label 1
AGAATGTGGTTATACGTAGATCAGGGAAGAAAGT	label 1
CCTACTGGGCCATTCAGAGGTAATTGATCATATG	label 0
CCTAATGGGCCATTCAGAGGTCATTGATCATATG	label 1
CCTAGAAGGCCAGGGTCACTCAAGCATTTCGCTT	label 0
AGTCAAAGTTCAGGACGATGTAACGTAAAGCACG	label 1
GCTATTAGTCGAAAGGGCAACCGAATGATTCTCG	label 1
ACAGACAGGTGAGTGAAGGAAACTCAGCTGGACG	label 0
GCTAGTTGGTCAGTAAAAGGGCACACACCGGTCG	label 1
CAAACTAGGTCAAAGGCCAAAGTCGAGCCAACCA	label 1
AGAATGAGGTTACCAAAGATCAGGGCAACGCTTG	label 1
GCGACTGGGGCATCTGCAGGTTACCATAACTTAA	label 1
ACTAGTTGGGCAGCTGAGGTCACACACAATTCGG	label 1
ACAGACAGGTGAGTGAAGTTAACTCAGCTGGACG	label 0
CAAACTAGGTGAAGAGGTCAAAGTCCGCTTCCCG	label 1
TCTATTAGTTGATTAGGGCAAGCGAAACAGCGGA	label 1
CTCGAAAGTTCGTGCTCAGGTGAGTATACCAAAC	label 1
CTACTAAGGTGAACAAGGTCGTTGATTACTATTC	label 1
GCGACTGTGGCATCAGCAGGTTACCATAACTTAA	label 0
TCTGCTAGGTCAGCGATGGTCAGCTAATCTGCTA	label 1
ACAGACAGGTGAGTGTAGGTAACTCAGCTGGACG	label 1
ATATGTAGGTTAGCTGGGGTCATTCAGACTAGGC	label 1
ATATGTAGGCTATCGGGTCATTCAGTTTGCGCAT	label 1
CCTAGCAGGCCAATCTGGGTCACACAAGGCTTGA	label 1
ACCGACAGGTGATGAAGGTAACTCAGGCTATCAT	label 1
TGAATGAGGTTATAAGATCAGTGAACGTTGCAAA	label 1
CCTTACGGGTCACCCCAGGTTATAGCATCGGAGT	label 1
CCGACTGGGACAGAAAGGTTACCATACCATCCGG	label 0
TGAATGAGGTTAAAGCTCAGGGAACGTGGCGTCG	label 1
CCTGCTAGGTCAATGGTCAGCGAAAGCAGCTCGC	label 1
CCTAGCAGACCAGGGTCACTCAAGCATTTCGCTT	label 0
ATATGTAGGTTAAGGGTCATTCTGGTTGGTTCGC	label 1
